Each recorded value in this set is attributed to ChEMBL document CHEMBL1156597.

Test system: K562
Assay overview: Cytotoxicity against human K562 cells after 48 hrs by SRB assay
Format: functional
Particulars: K562, 48 h
Property label: GI50 (µM)
Please state the figure in µM; there is no need to write the unit.

Completed entries (count: 2):
C/C=C1\NC(=O)[C@H](CCC2CCCCC2)NC(=O)[C@@H](C(C)C)NC(=O)[C@@H]([C@@H](C)CC)NC(=O)[C@H](NC(=O)[C@H](NC(=O)[C@H](CCCN)NC(=O)[C@H]2CCCN2C(=O)[C@H](NC(=O)[C@@H](NC(=O)[C@@H](NC(=O)[C@H](NC(=O)CCCC(C)C)C(C)C)[C@@H](C)O)C(C)C)C(C)C)[C@@H](C)CC)[C@@H](C)OC(=O)[C@H](C(C)C)NC1=O    1.42
C/C=C1\NC(=O)[C@H](Cc2ccccc2)NC(=O)[C@@H](C(C)C)NC(=O)[C@@H]([C@H](C)CC)NC(=O)[C@H](NC(=O)[C@H](NC(=O)[C@H](CCCN)NC(=O)[C@H]2CCCN2C(=O)[C@H](NC(=O)[C@@H](NC(=O)[C@H](NC(=O)[C@H](NC(=O)CCCC(C)C)C(C)C)[C@@H](C)O)C(C)C)C(C)C)[C@H](C)CC)[C@H](C)OC(=O)[C@H](C(C)C)NC1=O    1.93

Now let's try a different one.
`C/C=C1\NC(=O)[C@H](Cc2ccccc2)NC(=O)[C@@H](C(C)C)NC(=O)[C@@H]([C@H](C)CC)NC(=O)[C@H](NC(=O)[C@H](NC(=O)[C@H](CCCN)NC(=O)[C@H]2CCCN2C(=O)[C@H](NC(=O)[C@@H](NC(=O)[C@H](CCC(N)=O)NC(=O)[C@H](NC(=O)CCCC(C)C)C(C)C)C(C)C)C(C)C)[C@H](C)CC)[C@H](C)OC(=O)[C@H](C(C)C)NC1=O` on K562 gives GI50 = 1.9

====

System: A549
Assay overview: Cytotoxicity against human A549 cells after 48 hrs by SRB assay
Type: functional, cell-based
Particulars: Homo sapiens, A549, 48 h
Property label: LC50 (nM)
Please state the figure in nM; there is no need to write the unit.

C/C=C1\NC(=O)[C@H](Cc2ccccc2)NC(=O)[C@@H](C(C)C)NC(=O)[C@@H]([C@H](C)CC)NC(=O)[C@H](NC(=O)[C@H](NC(=O)[C@H](CCCN)NC(=O)[C@H]2CCCN2C(=O)[C@H](NC(=O)[C@@H](NC(=O)[C@@H](NC(=O)CNC(=O)CCCC(C)C)[C@@H](C)O)C(C)C)C(C)C)[C@H](C)CC)[C@H](C)OC(=O)[C@H](C(C)C)NC1=O    1890
C/C=C1\NC(=O)[C@H](Cc2ccccc2)NC(=O)[C@@H](C(C)C)NC(=O)[C@@H]([C@H](C)CC)NC(=O)[C@H](NC(=O)[C@H](NC(=O)[C@H](CCCN)NC(=O)[C@H]2CCCN2C(=O)[C@H](NC(=O)[C@@H](NC(=O)[C@H](Cc2ccccc2)NC(=O)[C@H](NC(=O)CCCC(C)C)C(C)C)C(C)C)C(C)C)[C@H](C)CC)[C@H](C)OC(=O)[C@H](C(C)C)NC1=O    1330

Now let's try a different one.
// field: LC50; key: `C/C=C1\NC(=O)[C@H](Cc2ccccc2)NC(=O)[C@@H](C(C)C)NC(=O)[C@@H]([C@H](C)CC)NC(=O)[C@H](NC(=O)[C@H](NC(=O)[C@H](CCCN)NC(=O)[C@H]2CCCN2C(=O)[C@H](NC(=O)[C@@H](NC(=O)[C@@H](NC(=O)[C@@H](CC(C)C)NC(=O)CCCC(C)C)[C@@H](C)O)C(C)C)C(C)C)[C@H](C)CC)[C@H](C)OC(=O)[C@H](C(C)C)NC1=O` ; value = 1080
